# study-target: DPP4 (Homo sapiens, UniProt P27487)
# Sequence (P27487 whole entry): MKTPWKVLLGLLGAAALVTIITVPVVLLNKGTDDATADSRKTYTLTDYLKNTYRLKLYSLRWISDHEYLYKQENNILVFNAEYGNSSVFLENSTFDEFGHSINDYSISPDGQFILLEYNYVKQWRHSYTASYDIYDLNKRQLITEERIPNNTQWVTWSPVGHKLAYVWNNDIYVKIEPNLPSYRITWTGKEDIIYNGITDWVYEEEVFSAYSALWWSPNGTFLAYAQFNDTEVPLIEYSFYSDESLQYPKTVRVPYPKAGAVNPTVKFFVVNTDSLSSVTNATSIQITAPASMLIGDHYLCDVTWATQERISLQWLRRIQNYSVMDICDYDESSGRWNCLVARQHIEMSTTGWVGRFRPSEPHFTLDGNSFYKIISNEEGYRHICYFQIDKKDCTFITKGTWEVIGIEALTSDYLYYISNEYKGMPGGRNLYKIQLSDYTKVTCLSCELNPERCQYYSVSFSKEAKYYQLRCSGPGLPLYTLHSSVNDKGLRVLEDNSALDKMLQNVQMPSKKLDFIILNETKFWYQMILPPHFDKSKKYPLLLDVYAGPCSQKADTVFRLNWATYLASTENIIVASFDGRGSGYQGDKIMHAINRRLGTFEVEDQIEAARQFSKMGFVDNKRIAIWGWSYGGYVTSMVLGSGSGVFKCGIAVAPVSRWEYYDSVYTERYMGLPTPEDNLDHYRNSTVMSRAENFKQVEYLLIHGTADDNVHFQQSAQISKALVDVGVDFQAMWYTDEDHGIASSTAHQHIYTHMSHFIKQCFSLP
# experiment-description: DPP4 inhibition, fluorogenic substrate H-Gly-Pro-AMC
# Assay type: biochemical
# Design: purchased R&D Systems
# details: read-out: hDPP4 inhibition % at 1 μM
inhibition at 1 µM: recorded values
Response body: numeric value in %, unit text excluded.

# item-smiles, study-target, inhibition at 1 µM (%)
records = [
    ("Cc1ccc2c(C(=O)N[C@H]3CCN(CC(=O)N4CCC[C@H]4C#N)C3)coc2c1", "DPP4 (Homo sapiens, UniProt P27487)", 1.3),
    ("N#C[C@@H]1CCCN1C(=O)CN1CC[C@H](Nc2cccc3ncccc23)C1", "DPP4 (Homo sapiens, UniProt P27487)", 5.4),
    ("N#C[C@@H]1CCCN1C(=O)CN1CC[C@H](Oc2cccc3c(Cl)ncnc23)C1", "DPP4 (Homo sapiens, UniProt P27487)", 1.2),
    ("CC(=O)N1CCN(c2ccc(O[C@H]3CCN(CC(=O)N4CCC[C@H]4C#N)C3)cc2)CC1", "DPP4 (Homo sapiens, UniProt P27487)", 9.1),
    ("N#C[C@@H]1CCCN1C(=O)CN1CC[C@H](NC(=O)c2ccc3ccoc3c2)C1", "DPP4 (Homo sapiens, UniProt P27487)", 0.6),
]

*Q* Dear colleague, I am looking for the recorded inhibition at 1 µM of the following compound: N#C[C@@H]1CCCN1C(=O)CN1CC[C@H](NC(=O)c2coc3c(F)cc(F)cc23)C1
*A* 0.6

*Q* Can you check N#C[C@@H]1CCCN1C(=O)CN1CC[C@H](Oc2ccnc3cc(Cl)ccc23)C1 next?
*A* 4.6

*Q* Can you check N#C[C@@H]1CCCN1C(=O)CN1CC[C@H](Oc2cc3ccccc3cn2)C1 next?
*A* 8

* * *

IC50: recorded values
# study-target: DPP4 (Homo sapiens, UniProt P27487)
# experiment-description: DPP4 inhibition, fluorogenic substrate H-Gly-Pro-AMC
# Format: biochemical
# Parameters: purchased R&D Systems
# details: recombinant human DPP4

*Q* Test system DPP4 (Homo sapiens, UniProt P27487); read-out IC50; what value for CN(c1ccc2ncccc2c1)C1CCN(CC(=O)N2CCC[C@H]2C#N)CC1 ?
*A* > 10 µM

*Q* Can you check Cc1cnc2ccc(N[C@@H]3CCN(CC(=O)N4CCC[C@H]4C#N)C3)cc2c1 next?
*A* 17.3 µM

* * *

# study-target: recombinant human PREP (Homo sapiens, UniProt P48147)
# Construct: purchased R&D System
# Sequence (P48147 whole entry): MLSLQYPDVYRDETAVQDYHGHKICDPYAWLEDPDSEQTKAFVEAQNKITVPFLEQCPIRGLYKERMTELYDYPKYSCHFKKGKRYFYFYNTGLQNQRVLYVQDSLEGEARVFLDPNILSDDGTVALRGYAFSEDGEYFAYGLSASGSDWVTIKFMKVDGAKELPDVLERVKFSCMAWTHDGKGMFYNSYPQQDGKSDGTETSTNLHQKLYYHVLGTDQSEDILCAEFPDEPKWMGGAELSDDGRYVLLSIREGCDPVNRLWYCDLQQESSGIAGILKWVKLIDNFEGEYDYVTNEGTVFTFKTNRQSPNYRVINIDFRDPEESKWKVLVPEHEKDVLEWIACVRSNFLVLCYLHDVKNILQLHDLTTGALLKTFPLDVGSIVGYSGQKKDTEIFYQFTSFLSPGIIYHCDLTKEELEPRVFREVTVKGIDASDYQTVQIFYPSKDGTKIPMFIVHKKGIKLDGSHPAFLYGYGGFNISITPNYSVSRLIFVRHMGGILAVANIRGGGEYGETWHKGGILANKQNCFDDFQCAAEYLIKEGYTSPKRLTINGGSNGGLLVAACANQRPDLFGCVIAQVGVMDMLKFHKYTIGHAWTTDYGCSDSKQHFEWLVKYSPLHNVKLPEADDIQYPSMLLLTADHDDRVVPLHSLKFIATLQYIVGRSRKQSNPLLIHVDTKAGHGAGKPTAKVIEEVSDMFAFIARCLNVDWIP
# experiment-description: PREP inhibition, fluorogenic substrate Z-Gly-Pro-AMC
# Type: biochemical
# details: Inhibitory Activity (IC50, nM) PREP, 25° C., Z-Gly-Pro-AMC substrate
attribute-measured: IC50 (nM)
Response body: numeric value in nM, unit text excluded.

Consider the following illustrative entries.
# item-smiles, study-target, IC50 [nM]
rows = [
    ("CN(c1cccc2ncccc12)[C@@H]1CCN(CC(=O)N2CCC[C@H]2C#N)C1", "recombinant human PREP (Homo sapiens, UniProt P48147)", 5020),
    ("CN(c1cccc2ncccc12)[C@H]1CCN(CC(=O)N2CCC[C@H]2C#N)C1", "recombinant human PREP (Homo sapiens, UniProt P48147)", 3360),
    ("N#C[C@@H]1CC(F)(F)CN1C(=O)CN1CCC(Nc2cccc3ncccc23)CC1", "recombinant human PREP (Homo sapiens, UniProt P48147)", 31000),
]

*Q* Dear colleague, I am looking for the recorded IC50 of the following compound: N#C[C@@H]1CCCN1C(=O)CN1CC[C@H](Nc2cccc3sccc23)C1
*A* 7230

*Q* Can you check N#C[C@@H]1CCCN1C(=O)CN1CC[C@H](Oc2cccc3[nH]c(=O)ccc23)C1 next?
*A* 5250

*Q* Can you check N#C[C@@H]1CC(F)(F)CN1C(=O)CN1CC[C@H](Oc2cccc3ncccc23)C1 next?
*A* 5230
